Origin of measurements: ChEMBL document CHEMBL5053530

system: HeLa/Fucci2; test: Cytotoxicity against human HeLa/Fucci2 cells assessed as reduction in cell growth measured after 3 days by MTT assay; assay type: functional, cell-based; conditions: HeLa/Fucci2, 72 h
Form field: IC50 (one value per entry).
Provide only the numeric value, understood in nM.

Past entries and their recorded results:
Smiles String: C1=C\CCCCCC[n+]2cccc(c2)CCCCCC/C=C\CCCCCC[n+]2cccc(c2)CCCCCCCC/1
Measurement Target: HeLa/Fucci2
Unit Symbol: nM
Assay Value: 2600
//
Smiles String: C1=C\CCCCCC[n+]2cccc(c2)CCCCCCCCCCCCCC[n+]2cccc(c2)CCCCCC/1.O=C[O-].O=C[O-]
Measurement Target: HeLa/Fucci2
Unit Symbol: nM
Assay Value: 1200

Problem: Recorded IC50 for C1=C\CCCCCCc2ccc[n+](c2)CCCCCC/C=C\CCCCCCc2ccc[n+](c2)CCCCCCCC/1 , please?
Solution: 2600

Problem: Which IC50 value belongs to C1=C\CCCCCC[n+]2cccc(c2)CCCCCC/C=C\CCCCCC[n+]2cccc(c2)CCCCCC/1 ?
Solution: 2400
